Values compiled from PubChem BioAssay (NCI).

System: T-47D breast
Assay: NCI-60 one-dose screen, 48 h (100 = growth as untreated, 0 = no growth, -100 = all killed)
Details: 10 µM unless noted
Compounds without any hit were thinned out: in the full panel of roughly 83,000, 20% have a hit. The source made the active and inactive calls. How the source made its calls: active means growth percent below 10; inactive means the rest.
Record form. Attribute: growth. Fill in for each entry.

Lookup result for COc1ccc(C2[C@@H](Cl)C(=O)N2c2cc(OC)c(OC)c(OC)c2)cc1Cl (stereo not given in full) ; measured growth: 43.3% (inactive)

Lab book: growth of CCN1CCN(CCNc2nccc(-c3c(-c4ccc(F)c(O)c4)nc4occn34)n2)S1(=O)=O noted as -1.77% (active)

Notebook: C=C1SC(=Nc2ccccc2Cl)N(C(=O)c2sc3ccccc3c2Cl)C1(C)C , growth read as 34.7% (inactive)

Form field growth, entry O=C(NCCCCO)c1cncnc1Nc1ccc2c(ccn2Cc2cccc(F)c2)c1 : 83.3% (inactive)

growth recorded for this compound, COc1cc2c3c(c4c5ccccc5[nH]c4c2c(OC)c1OC)C(=O)N(CCN1CCCCC1)C3=O , is 59.5% (inactive)

The compound listed as Nc1c(Br)cc2c(c1Br)Cc1cc([N+](=O)[O-])ccc1-2 shows growth equal to 58.3% (inactive)

The measured growth associated with CCCCCCCCn1ccc2cc(NC(=O)CN=[N+]=[N-])ccc21 reads 94% (inactive)

get_value(item= C[C@H]1[C@H](C)CC[C@]2(C(=O)NCCNCCN)CC[C@]3(C)C(=CC[C@@H]4[C@@]5(C)CCC(=O)C(C)(C)[C@@H]5CC[C@]43C)[C@H]12 , readout=growth) returns 39.8% (inactive)

What the record says about O=S(=O)(N=C1C(Cl)=C(Cl)C(=NS(=O)(=O)c2ccccc2)C(Cl)=C1Cl)c1ccccc1 : growth is 88.9% (inactive)

For CNCC[C@H](Oc1cccc2ccccc12)c1cccs1 the compound record lists growth as 99.9% (inactive)

Entry under test: COc1ccc(-c2nc3ccc(C)cc3c3c2c(=O)n(C)c(=O)n3C)cc1OC . Its growth was 106% (inactive)

Note to self: growth recorded for c1cc(OCCN2CCCCCC2)ccc1CNc1ccc2nc(CCC3CCCCC3)[nH]c2c1 was 31.6% (inactive)

// growth lookup, compound = O=C(Cc1ccc(/C=C/C(=O)c2ncc[nH]2)cc1)Nc1cc(F)c(F)c(F)c1 , result: 49.9% (inactive)

The reported growth of the compound CCOC(=O)CC1CSC(N/N=C/c2ccc(F)c(Br)c2)=N1 (stereo not given) was 93.7% (inactive)

growth measured on Nc1cc(Br)cc2c1[nH]c(=O)c1ccccc12 = 79.6% (inactive)

Form: compound = C=C(C)[C@@H]1CC[C@]2(C)[C@H](C=CC3=C4C[C@@](C)(CO)CC[C@]4(C)CC[C@]32C)[C@@]1(C)CCCN ; growth = -43.7% (active)

growth reported for this compound O=CCCCOCc1ccccc1 : 102% (inactive)

# growth of Cc1ccc(O)c(NC(=O)c2cccc(Nc3ccnc(C(F)(F)F)c3)c2)c1 = 21% (inactive)

Record CN(C)CCCn1c2c(c3ccncc3c1=O)C(=O)c1ccccc1-2 . Reported growth: -12.3% (active)

Given item c1csc(-c2cn3nc(-c4c[nH]c5ccccc45)sc3n2)c1 , the value recorded as its growth is 23.9% (inactive)
